Source listed as paper PMC11898958.

System Name: human serum albumin (Homo sapiens, UniProt P02768)
Sequence (P02768 25-609): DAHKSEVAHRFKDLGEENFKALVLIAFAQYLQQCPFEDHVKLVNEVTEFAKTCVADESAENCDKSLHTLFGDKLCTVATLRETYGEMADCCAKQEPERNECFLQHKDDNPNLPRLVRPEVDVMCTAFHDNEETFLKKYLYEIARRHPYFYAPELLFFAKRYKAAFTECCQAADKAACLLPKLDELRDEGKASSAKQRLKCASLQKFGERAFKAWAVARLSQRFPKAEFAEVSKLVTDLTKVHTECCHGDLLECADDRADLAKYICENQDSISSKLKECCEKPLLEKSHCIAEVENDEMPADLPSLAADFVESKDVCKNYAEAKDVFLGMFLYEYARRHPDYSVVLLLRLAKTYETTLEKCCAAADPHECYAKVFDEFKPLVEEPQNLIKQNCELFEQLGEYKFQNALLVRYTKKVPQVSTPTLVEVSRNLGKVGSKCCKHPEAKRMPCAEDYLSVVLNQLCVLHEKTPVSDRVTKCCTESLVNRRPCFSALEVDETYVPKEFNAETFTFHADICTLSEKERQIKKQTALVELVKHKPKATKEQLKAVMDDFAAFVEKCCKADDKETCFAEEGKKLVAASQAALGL
Protocol Conditions: HSA column, isopropanol gradient, 50 mM ammonium acetate pH 7.4, 30 °C
If the reported %HSA (binding to HSA) equals or exceeds 90%, assign fulfilled. If not, assign not fulfilled.

CCOP(=S)(OCC)SCCSCC [Disulfoton] :: fulfilled
COP(=O)(OC)OC(Br)C(Cl)(Cl)Br (centres unmarked) [Naled] :: not fulfilled
CCOP(=S)(OCC)SCSCC [Phorate] :: fulfilled
COP(=S)(OC)Oc1ccc(SC)c(C)c1 [Fenthion] :: fulfilled
COP(=O)(OC)OC=C(Cl)Cl [Dichlorvos] :: not fulfilled
COP(=S)(OC)SCN1C(=O)c2ccccc2C1=O [Phosmet] :: not fulfilled
CCOP(=S)(OCC)Oc1cc(C)nc(C(C)C)n1 [Diazinon] :: not fulfilled
CCOP(=O)(OCC)Oc1ccc([N+](=O)[O-])cc1 [Paraoxon-ethyl] :: not fulfilled

---

Experimental Details: Affinity to phospholipids by IAM-HPLC (IAM.PC.DD2 column)
Type: physicochemical
Protocol Conditions: IAM.PC.DD2 column, acetonitrile gradient, 50 mM ammonium acetate pH 7.4, 30 °C
Grouping rule (CHIIAM (chromatographic hydrophobicity index of IAM-HPLC)): low (below 30), moderate (30 to below 40), high (40 or more)

CCOP(=S)(OCC)SCn1nnc2ccccc2c1=O :: moderate
CCOP(=O)(OCC)OC(=CCl)c1ccc(Cl)cc1Cl :: moderate
COP(=S)(OC)Oc1ccc(SC)c(C)c1 :: high
COP(=S)(OC)Oc1ccc([N+](=O)[O-])c(C)c1 :: moderate
COP(=S)(OC)SCn1nnc2ccccc2c1=O :: moderate
CCOP(=S)(OCC)SCSCC [Phorate] :: high
CCOP(=O)(OCC)Oc1ccc([N+](=O)[O-])cc1 :: low
COP(=S)(OC)SCN1C(=O)c2ccccc2C1=O :: moderate
COP(=S)(OC)Oc1ccc([N+](=O)[O-])cc1 :: moderate
CCOC(=O)N(C)C(=O)CSP(=S)(OCC)OCC :: moderate
COP(=O)(OC)OC=C(Cl)Cl :: low
CCOP(=S)(OCC)SCCSCC :: high

---

System Name: human serum albumin (Homo sapiens)
Protocol Conditions: HSA column, isopropanol gradient, 50 mM ammonium acetate pH 7.4, 30 °C
Measured Attribute: LogkHSA (chromatographically determined affinity to HSA-HPLC)

CCOP(=O)(OCC)Oc1ccc([N+](=O)[O-])cc1 :: −0.42
CCOC(=O)N(C)C(=O)CSP(=S)(OCC)OCC :: 0.44
CCOP(=S)(OCC)SCCSCC :: 1.06
CCOP(=S)(OCC)Oc1cnc2ccccc2n1 :: 0.97

---

// CHIC18 (chromatographic hydrophobicity index of RP-HPLC) lookup, one value per entry
Experimental Details: Chromatographic lipophilicity by RP-HPLC on C18 column (CHIC18)
Format: physicochemical
Protocol Conditions: C18 XTERRA RP18 column, acetonitrile gradient, 50 mM ammonium acetate pH 7.4, 30 °C
Measured Attribute: CHIC18 (chromatographic hydrophobicity index of RP-HPLC)

COP(=S)(OC)Oc1ccc(SC)c(C)c1 :: 102.16
CCOP(=S)(OCC)SCSCC [Phorate] :: 108.36
CCOP(=S)(OCC)SCCSCC :: 108.97
CCOP(=S)(OCC)Oc1cc(C)nc(C(C)C)n1 :: 105.98
COP(=O)(OC)OC(Br)C(Cl)(Cl)Br (stereo not drawn) :: 31.32
CCOP(=S)(OCC)SCn1nnc2ccccc2c1=O :: 95.69
CCOC(=O)N(C)C(=O)CSP(=S)(OCC)OCC :: 97.09
COP(=S)(OC)Oc1ccc([N+](=O)[O-])cc1 :: 88.75
COP(=O)(OC)OC=C(Cl)Cl :: 23.17
CCOP(=S)(OCC)Oc1cnc2ccccc2n1 :: 101.01
COP(=S)(OC)SCn1nnc2ccccc2c1=O :: 83.47
CCOP(=O)(OCC)Oc1ccc([N+](=O)[O-])cc1 :: 72.54
COP(=S)(OC)Oc1ccc([N+](=O)[O-])c(C)c1 :: 93.49
CCOP(=O)(OCC)OC(=CCl)c1ccc(Cl)cc1Cl :: 97.18
COP(=S)(OC)SCN1C(=O)c2ccccc2C1=O :: 85.39

---

System Name: human serum albumin (Homo sapiens)
Protocol Conditions: HSA column, isopropanol gradient, 50 mM ammonium acetate pH 7.4, 30 °C
Grouping rule (LogkHSA (chromatographically determined affinity to HSA-HPLC)): lo (below 0.7), mid (0.7 to below 1), hi (1 or more)

COP(=S)(OC)Oc1ccc([N+](=O)[O-])cc1 :: mid
CCOP(=O)(OCC)OC(=CCl)c1ccc(Cl)cc1Cl :: mid
CCOP(=S)(OCC)Oc1cc(C)nc(C(C)C)n1 :: lo
COP(=S)(OC)SCn1nnc2ccccc2c1=O :: mid
CCOP(=S)(OCC)SCSCC [Phorate] :: hi
COP(=O)(OC)OC=C(Cl)Cl :: lo
COP(=S)(OC)Oc1ccc(SC)c(C)c1 :: hi
COP(=O)(OC)OC(Br)C(Cl)(Cl)Br (centres unmarked) :: lo
COP(=S)(OC)SCN1C(=O)c2ccccc2C1=O :: mid

---

// %HSA (binding to HSA) lookup, one value per entry
System Name: human serum albumin (Homo sapiens)
Protocol Conditions: HSA column, isopropanol gradient, 50 mM ammonium acetate pH 7.4, 30 °C
Measured Attribute: %HSA (binding to HSA) (%)

COP(=S)(OC)Oc1ccc([N+](=O)[O-])cc1 :: 87.94
CCOC(=O)N(C)C(=O)CSP(=S)(OCC)OCC :: 74.23
COP(=S)(OC)SCn1nnc2ccccc2c1=O :: 86.70
CCOP(=O)(OCC)OC(=CCl)c1ccc(Cl)cc1Cl :: 85.54

---

System Name: human serum albumin (Homo sapiens, UniProt P02768)
Protocol Conditions: HSA column, isopropanol gradient, 50 mM ammonium acetate pH 7.4, 30 °C
Measured Attribute: %HSA (binding to HSA) (%)

CCOP(=S)(OCC)SCn1nnc2ccccc2c1=O [Azinphos-ethyl] :: 92.07
COP(=S)(OC)Oc1ccc([N+](=O)[O-])c(C)c1 [Fenitrothion] :: 91.78
CCOP(=S)(OCC)Oc1cnc2ccccc2n1 [Quinalphos] :: 91.23

---

Experimental Details: Affinity to phospholipids by IAM-HPLC (IAM.PC.DD2 column)
Format: physicochemical
Protocol Conditions: IAM.PC.DD2 column, acetonitrile gradient, 50 mM ammonium acetate pH 7.4, 30 °C
// CHIIAM (chromatographic hydrophobicity index of IAM-HPLC) lookup, one value per entry
Measured Attribute: CHIIAM (chromatographic hydrophobicity index of IAM-HPLC)

COP(=O)(OC)OC(Br)C(Cl)(Cl)Br (stereo not drawn) :: 29.79
CCOP(=S)(OCC)Oc1cc(C)nc(C(C)C)n1 :: 39.34
CCOP(=S)(OCC)Oc1cnc2ccccc2n1 :: 39.40
